Assay: Mouse pharmacokinetics, IV and oral administration
Type: in vivo
Conditions: male, C57BL/6, mouse, plasma, po, 8.96 mg/kg, male C57BL/6 mice, oral 8.96 mg/kg, 0.50 h; read-out: Plasma Concentration, Individual
endpoint name: concentration at 0.5 h

Q: If you can, please state the reported concentration at 0.5 h value of `Nc1nccc(-c2c(-c3ccc(F)cc3)ncn2C2CCC(F)(F)CC2)n1` .
A: 13.7 µM

----------
Assay: In vitro metabolic stability, human liver microsomes
Format: in vitro ADME
Details: human liver microsomes, 1 μM
Description: Human Microsomal Stability of Compounds of the Invention In Vitro Metabolic Stability Incubation: The metabolic stability assay was performed by incubating each test compound in human liver microsomes at 37° C. and a protein concentration of 0.4 mg/mL. […] Hepatic blood clearance and the corresponding hepatic extraction ratio (EH) were calculated using the well stirred model of hepatic extraction in each species, according to the “in vitro T1/2” approach described in Obach (1999) DrugMetab. […]
endpoint name: microsomal CLint at 1 μM (µL/min/mg)
Report the value in µL/min/mg with no unit label.

Q: I would be grateful if you could share the reported microsomal CLint at 1 μM for `CCn1cnc(-c2ccc(F)cc2)c1-c1ccnc(NCCO)n1` .
A: 7

----------
Assay: In vitro metabolic stability, human liver microsomes
Assay type: in vitro ADME
Settings: human liver microsomes, 1 μM, 0.4 mg/mL protein, 37° C.
endpoint name: half-life at 1 μM

                            molecule_smiles      endpoint_name  endpoint_value
0  Nc1nccc(-c2c(-c3ccc(F)cc3)ncn2C2CCC(F)(F)CC2)n1  half-life at 1 μM        > 4.25 h

Let's switch to this molecule now.
Q: I am curious: what half-life at 1 μM value has been reported for `CCn1cnc(-c2ccc(F)cc2)c1-c1ccnc(NCCO)n1` ?
A: 4.03 h

----------
Assay: Mouse pharmacokinetics, IV and oral administration
Assay type: in vivo
Details: male, C57BL/6, mouse, plasma, iv, 2.69 mg/kg, male C57BL/6 mice, IV 2.69 mg/kg, 1.0 h; read-out: Plasma Concentration, Individual
endpoint name: concentration at 1 h (nM)
# unit: nM | format: bare number

Q: I'd like to know its concentration at 1 h. The compound in question is `Nc1nccc(-c2c(-c3ccc(F)cc3)ncn2C2CCC(F)(F)CC2)n1`
A: 2930

----------
Assay: Mouse pharmacokinetics, IV and oral administration
Type: in vivo
Conditions: male, C57BL/6, mouse, plasma, po, 8.96 mg/kg, male C57BL/6 mice, oral 8.96 mg/kg, 7.5 h; read-out: Plasma Concentration, Mean
endpoint name: concentration at 7.5 h (µM)
Number only, in µM; omit the unit.

Q: For the molecule `Nc1nccc(-c2c(-c3ccc(F)cc3)ncn2C2CCC(F)(F)CC2)n1` , what concentration at 7.5 h is on record?
A: 7.09

----------
Assay: Mouse pharmacokinetics, IV and oral administration
Assay type: in vivo
Details: male, C57BL/6, mouse, plasma, po, 8.96 mg/kg, male C57BL/6 mice, oral 8.96 mg/kg, 0.50 h; read-out: Plasma Concentration, Mean
endpoint name: concentration at 0.5 h (µM)
The answer is to be given in µM; state only the numeric part.

Q: # get_value(readout='concentration at 0.5 h', item= Nc1nccc(-c2c(-c3ccc(F)cc3)ncn2C2CCC(F)(F)CC2)n1 [ZH3-138] )
A: 15.8

----------
Assay: Mouse pharmacokinetics, IV and oral administration
Type: in vivo
Settings: male, C57BL/6, mouse, plasma, iv, 2.69 mg/kg, male C57BL/6 mice, IV 2.69 mg/kg, 0.083 h (actual sampling time was 0.10 h); read-out: Plasma Concentration, Mean
endpoint name: concentration at 0.083 h (µM)
Answer with a number only, understood to be in µM.

Q: Any idea what its concentration at 0.083 h is? The compound is Nc1nccc(-c2c(-c3ccc(F)cc3)ncn2C2CCC(F)(F)CC2)n1 [ZH3-138]
A: 5.73

----------
Assay: Mouse pharmacokinetics, IV and oral administration
Format: in vivo
Conditions: male, C57BL/6, mouse, plasma, iv, 2.69 mg/kg, male C57BL/6 mice, IV 2.69 mg/kg, 0.033 h; read-out: Plasma Concentration, Individual
Method: PF670462 (2HCl.0.4 mol. eq. isopropanol) and ZH3-138 (unionised) were administered to male C57BL/6 mice by IV (3 mg/kg) or orally (10 mg/kg). […] Plasma samples were quantified against calibration standards prepared by spiking blank mouse plasma (50 μL) with solution standards (10 μL) obtained by diluting a stock solution of test compound (1 mg/mL in DMSO) with 50% acetonitrile in water. […]
endpoint name: concentration at 0.033 h (µM)
Quick reminder: number only, in µM, skip the unit.

Q: For `Nc1nccc(-c2c(-c3ccc(F)cc3)ncn2C2CCC(F)(F)CC2)n1` , what is its reported concentration at 0.033 h?
A: 7.86

----------
Experiment: Mouse pharmacokinetics, IV and oral administration
Assay type: in vivo
Conditions: male, C57BL/6, mouse, plasma, iv, 2.69 mg/kg, male C57BL/6 mice, IV 2.69 mg/kg, 2.0 h; read-out: Plasma Concentration, Mean
Experimental: PF670462 (2HCl.0.4 mol. eq. isopropanol) and ZH3-138 (unionised) were administered to male C57BL/6 mice by IV (3 mg/kg) or orally (10 mg/kg). […] Plasma samples were quantified against calibration standards prepared by spiking blank mouse plasma (50 μL) with solution standards (10 μL) obtained by diluting a stock solution of test compound (1 mg/mL in DMSO) with 50% acetonitrile in water. […]
endpoint name: concentration at 2 h

Q: What value of concentration at 2 h has been recorded for this entry: Nc1nccc(-c2c(-c3ccc(F)cc3)ncn2C2CCC(F)(F)CC2)n1 [ZH3-138]
A: 4.55 µM

----------
This section presents molecules with their documented IC50 values.
Biological target: human recombinant Casein kinase 18 (CK1δ) (Homo sapiens, UniProt P48730)
Construct: purchased Reaction Biology Corp
Sequence (P48730 whole entry): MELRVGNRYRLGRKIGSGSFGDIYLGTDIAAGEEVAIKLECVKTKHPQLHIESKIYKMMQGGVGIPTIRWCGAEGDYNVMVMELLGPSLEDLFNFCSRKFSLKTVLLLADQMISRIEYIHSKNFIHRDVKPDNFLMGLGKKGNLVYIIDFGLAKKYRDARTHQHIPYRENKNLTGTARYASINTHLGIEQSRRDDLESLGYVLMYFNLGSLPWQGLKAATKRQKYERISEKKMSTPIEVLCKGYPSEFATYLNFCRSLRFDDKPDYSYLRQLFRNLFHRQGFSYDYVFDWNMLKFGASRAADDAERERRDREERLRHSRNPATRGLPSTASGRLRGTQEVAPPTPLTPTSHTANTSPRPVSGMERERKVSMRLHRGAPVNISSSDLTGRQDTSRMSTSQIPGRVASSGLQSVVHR
Experiment: Kinase inhibition assay (HotSpot, Reaction Biology Corp), CK1δ
Format: biochemical
Details: 10 μM ATP, 10-dose IC50 mode; read-out: Compound IC50 (M) CK1δ
Number in M, nothing else.

Below, each entry is followed by its recorded IC50 result.
>>> print(df.to_string())
                                   molecule  unit_string  endpoint_value
0  CCNc1nccc(-c2c(-c3ccc(F)cc3)ncn2C2CCCCC2)n1 [ZH2-78]            M         4.7e-09
1  Fc1ccc(-c2ncn(C3CCCCC3)c2-c2ccnc(NC3CC(F)(F)C3)n2)cc1 [ZH3-70]            M           1e-09
2  CC(C)(C)Cn1cnc(-c2ccc(F)cc2)c1-c1ccnc(N)n1 [ZH3-78]            M        5.93e-08
3  Fc1ccc(-c2ncn(C3CCCCC3)c2-c2ccnc(NC3CCOCC3)n2)cc1 [ZH2-54]            M        1.73e-09
4  Fc1ccc(-c2ncn(C3CCCCC3)c2-c2ccnc(NC3CC3)n2)cc1 [ZH3-86]            M        7.59e-09
5  O[C@H]1C[C@@H](Nc2nccc(-c3c(-c4ccc(F)cc4)ncn3C3CCCCC3)n2)C1 [ZH3-62]            M        1.31e-09

Now look at this entry.
Q: Could you tell me which IC50 is on file for CCn1cnc(-c2ccc(F)cc2)c1-c1ccnc(NCCO)n1 [ZH3-126] ?
A: 6.38e-10

----------
Assay: Mouse pharmacokinetics, IV and oral administration
Type: in vivo
Conditions: male, C57BL/6, mouse, plasma, iv, 2.69 mg/kg, male C57BL/6 mice, IV 2.69 mg/kg, 2.0 h; read-out: Plasma Concentration, Individual
endpoint name: concentration at 2 h (µM)
// note: answer is a bare numeric in µM

Q: What measured concentration at 2 h goes with `Nc1nccc(-c2c(-c3ccc(F)cc3)ncn2C2CCC(F)(F)CC2)n1` ?
A: 4.42

----------
Test: Mouse pharmacokinetics, IV and oral administration
Format: in vivo
Conditions: male, C57BL/6, mouse, plasma, po, 8.96 mg/kg, male C57BL/6 mice, oral 8.96 mg/kg, 4.0 h; read-out: Plasma Concentration, Mean
endpoint name: concentration at 4 h (µM)
Return type: number; implicit unit µM.

Q: Given the molecule `Nc1nccc(-c2c(-c3ccc(F)cc3)ncn2C2CCC(F)(F)CC2)n1` , what is its reported concentration at 4 h?
A: 12.1

----------
Assay: Mouse pharmacokinetics, IV and oral administration
Assay type: in vivo
Details: male, C57BL/6, mouse, plasma, iv, 2.69 mg/kg, male C57BL/6 mice, IV 2.69 mg/kg, 7.5 h; read-out: Plasma Concentration, Individual
endpoint name: concentration at 7.5 h (nM)
Record the value in nM, omitting the unit from your answer.

Q: Look up concentration at 7.5 h for this compound: `Nc1nccc(-c2c(-c3ccc(F)cc3)ncn2C2CCC(F)(F)CC2)n1`
A: 1840

Data provenance: patent US20220281846A1
